# Test system: SR leukemia
# test.summary: NCI-60 one-dose screen, 48 h (100 = growth as untreated, 0 = no growth, -100 = all killed)
# assay.setup: 10 µM unless noted
# Description: Growth inhibition of the SR human tumor cell line is measured as a screen for anti-cancer activity. Cells are grown in 96 well plates and exposed to the test compound for 48 hours. Compounds are tested at a single concentration, which is 10^-5 M for most compounds. The reported endpoint is percent growth (GI% or GIPRCNT), where numbers from 0 - 100% represent growth inhibition, and numbers from -100% - 0 represent cell death. For example, a value of 40 represents 60% growth inhibition. […]
About 83,000 compounds went through this panel and 20% of them were active in at least one assay; those are over-represented in the sample as a whole.
Criterion: growth strictly less than 30%. Met: 1.0. Not met: 0.0.

- Cc1c(C)c2c(c(C)c1OC(=O)CCC(=O)[O-])CCC(C)(CCCCCCCCCCC[P+](c1ccccc1)(c1ccccc1)c1ccccc1)O2 (centres undefined): 1.0
- Cc1c(Cl)cccc1NC(=O)c1sc2nc3c(cc2c1N)CCCC3: 1.0
- CN1CCN(CCCNC(=O)c2c3c(n4ccccc24)C(=O)c2ncccc2C3=O)CC1: 1.0
- CCOc1cc(\C=N/N=C(N)/C(N)=N\N=C/c2ccc(O)c(OCC)c2)ccc1O: 0.0
- CCN1C(=O)N(CC)C2C1NC(=S)N2/N=C/C=C/c1cccs1 (centres undefined): 1.0
- CCOC(=O)c1cnc2sc(-c3ccc(OC)cc3)nc2c1Cl: 0.0
- C=C(C)[C@@H]1CC[C@]2(C#N)CC[C@]3(C)[C@H](CC[C@@H]4[C@@]5(C)CCCNC(C)(C)[C@@H]5CC[C@]43C)[C@@H]12: 1.0
- Cn1ccnc1C(=O)/C=C/c1ccc(CC(=O)Nc2cc(F)c(F)c(F)c2)cc1: 1.0

FYI, the data here is from PubChem BioAssay (NCI).
